Below, each of the binders is paired with its reported IC50, lectin pathway C4 deposition, rat serum value.
Biological target: rat MASP-2 (in rat serum) (rat, UniProt Q9JJS8 20-685)
Sequence (Q9JJS8 20-685 limits assumed): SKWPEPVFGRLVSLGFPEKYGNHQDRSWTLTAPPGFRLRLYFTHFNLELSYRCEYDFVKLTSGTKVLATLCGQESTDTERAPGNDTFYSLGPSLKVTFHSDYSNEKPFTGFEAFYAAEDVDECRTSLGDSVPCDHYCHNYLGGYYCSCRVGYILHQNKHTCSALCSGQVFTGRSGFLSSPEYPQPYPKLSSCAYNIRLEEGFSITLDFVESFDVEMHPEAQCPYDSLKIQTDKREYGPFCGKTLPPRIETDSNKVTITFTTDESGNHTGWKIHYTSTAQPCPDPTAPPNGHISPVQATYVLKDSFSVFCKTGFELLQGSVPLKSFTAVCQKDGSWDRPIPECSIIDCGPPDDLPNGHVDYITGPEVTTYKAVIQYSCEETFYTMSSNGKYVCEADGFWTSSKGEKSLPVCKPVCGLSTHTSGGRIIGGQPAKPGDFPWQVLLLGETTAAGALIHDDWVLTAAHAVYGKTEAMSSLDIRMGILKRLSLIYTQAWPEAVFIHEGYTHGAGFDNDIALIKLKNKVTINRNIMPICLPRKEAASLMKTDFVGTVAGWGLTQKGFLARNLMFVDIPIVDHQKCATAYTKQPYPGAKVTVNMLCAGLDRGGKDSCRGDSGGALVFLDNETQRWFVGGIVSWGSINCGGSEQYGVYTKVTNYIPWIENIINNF
Experiment: cell-based or functional assay
Where no end group is shown, it is not given here.
ASSAY_ENDPOINT: IC50, lectin pathway C4 deposition, rat serum (nM)

>>> measured_value("EVO222 (designed binder, not fully specified; cysteine pairing not given here, Modified TFPI-D2 Kunitz domain; made as m1) KPDFCFLENDPGLCRAAAVRYFYNNQTKQCERFYYGGCLGNMNNFVTLEECKNICEDG")
24.2
>>> measured_value("EVO21a (designed binder, not fully specified; cysteine pairing not given here, Modified TFPI-D2 Kunitz domain; made as m1) KPDFCFLENDPGPCRAVKRRYFYNNQTKQCERFGYGGCLGNMNNFVTLEECKNICEDG")
39.4
>>> measured_value("EVO21d (designed binder, not fully specified; cysteine pairing not given here) KPDFCFLEEDPGPCRALKRRYFYNNQTKQCERFSYGGCFGNMNNFVTLEECKNICEDG")
25.9
>>> measured_value("EVO2b (designed binder, not fully specified; cysteine pairing not given here, Modified TFPI-D2 Kunitz domain; made as m1) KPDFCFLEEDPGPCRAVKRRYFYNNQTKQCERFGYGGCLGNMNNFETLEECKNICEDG")
34.3

Value source: patent US20260098080A1
